# tested-on: NACHT, LRR and PYD domains-containing protein 3 (Mus musculus) (UniProt Q8R4B8)
# Sequence (Q8R4B8 whole entry, the tested form may be a part): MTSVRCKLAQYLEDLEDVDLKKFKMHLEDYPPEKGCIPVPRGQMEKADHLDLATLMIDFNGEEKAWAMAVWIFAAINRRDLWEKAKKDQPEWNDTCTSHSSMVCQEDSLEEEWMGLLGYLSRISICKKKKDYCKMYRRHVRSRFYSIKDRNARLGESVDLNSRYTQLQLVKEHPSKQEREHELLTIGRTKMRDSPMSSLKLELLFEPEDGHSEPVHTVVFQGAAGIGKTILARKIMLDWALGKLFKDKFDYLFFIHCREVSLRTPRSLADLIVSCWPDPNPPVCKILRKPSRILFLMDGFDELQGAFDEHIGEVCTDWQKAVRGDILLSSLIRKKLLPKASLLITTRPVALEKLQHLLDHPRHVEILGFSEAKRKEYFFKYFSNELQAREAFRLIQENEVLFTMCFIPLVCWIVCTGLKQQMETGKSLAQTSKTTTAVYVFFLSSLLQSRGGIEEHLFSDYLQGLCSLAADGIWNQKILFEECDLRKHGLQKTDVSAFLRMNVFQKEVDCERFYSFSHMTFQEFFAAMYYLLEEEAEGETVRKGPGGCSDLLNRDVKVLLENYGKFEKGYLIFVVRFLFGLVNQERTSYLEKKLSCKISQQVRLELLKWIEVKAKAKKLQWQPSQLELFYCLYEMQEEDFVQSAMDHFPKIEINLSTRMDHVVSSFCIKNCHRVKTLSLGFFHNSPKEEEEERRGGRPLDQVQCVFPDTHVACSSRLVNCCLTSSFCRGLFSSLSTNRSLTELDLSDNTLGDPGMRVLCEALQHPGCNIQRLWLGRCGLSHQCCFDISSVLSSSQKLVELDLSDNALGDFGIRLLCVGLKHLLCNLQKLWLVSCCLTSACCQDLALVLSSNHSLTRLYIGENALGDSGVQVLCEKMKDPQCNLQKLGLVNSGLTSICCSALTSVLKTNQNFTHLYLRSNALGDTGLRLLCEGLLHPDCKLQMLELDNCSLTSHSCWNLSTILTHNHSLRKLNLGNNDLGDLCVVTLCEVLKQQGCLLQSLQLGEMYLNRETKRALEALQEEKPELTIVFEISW
# assay-remarks: Inhibition of NLRP3 inflammasome activation in LPS/ATP-induced C57BL/6 mouse BMDMs assessed as reduction in IL-1beta secretion at 500 nM preincubated with LPS for 4 hrs followed by compound addition for 30 mins and further stimulated with ATP for 30 mins by ELISA relative to control
# Type: cell-based
# study-conditions: BMDM, time 1.0 hrs
Some compounds, each annotated with its measured inhibition.
endpoint-label: inhibition (%)

{"columns": ["smiles-repr", "endpoint-label", "endpoint-unit", "numeric-value"],
 "data": [
  ["C=C1C(=O)[C@]23[C@H](O)[C@H]1CC[C@H]2[C@]12C=CCC(C)(C)[C@H]1[C@H](O)[C@@]3(OCCC(=O)N1CCCCC1)OC2", "inhibition", "%", 82.1],
  ["C=C1C(=O)[C@]23[C@H](O)[C@H]1CC[C@H]2[C@]12C=CCC(C)(C)[C@H]1[C@H](O)[C@@]3(OCCCc1ccc(Cl)cc1)OC2", "inhibition", "%", 65],
  ["C=C1C(=O)[C@]23[C@H](OCc4ccc(Cl)cc4)[C@H]1CC[C@H]2[C@]12C=CCC(C)(C)[C@H]1[C@H](O)[C@@]3(O)OC2", "inhibition", "%", 72.4],
  ["C=C1C(=O)[C@]23[C@H](O)[C@H]1CC[C@H]2[C@]12C=CCC(C)(C)[C@H]1[C@H](O)[C@@]3(OCCC(=O)NCCOC)OC2", "inhibition", "%", 69.9]
]}
